# System: TO-3-N3-2 (biotin conjugate)
# protocolText: pull-down binding Z-score (relative to library population); higher = stronger binding
# experimentalParameters: RNA library: Library-2
# binarize pull-down binding Z-score: threshold -0.2 inclusive, high side T, low side F

Example entries begin here.
Q: // inclusive: pull-down binding Z-score at least -0.2? input: CUGUGGUCUAACCUUUCCCAUCU [hsa-mir-6828]
A: T

Q: Next sequence: CCAUCAAGCCCCACCAGAAGGUGGAGGCCCAGGUGAG [hsa-mir-4721]
A: F

Q: Also check GCGCUGCCAGAAACUGGCUUUAGCGC [bulge-UUU]
A: T

Q: Queued: GCAUGGGGCUAGGAGGCCCCGCGC [hsa-mir-6825]
A: T

Q: Another sequence: "CUCUAUGACAAACUUGUUUCAAGCUUUUUGGAAAUGAAGAGUGAAAAGCAAGUUGAACAAAAGAUCGCUGAG"
A: F

***
Q: Threshold query (pull-down binding Z-score >= -0.2) on AUCAGCAGAGACAUGAGGUGAUCAAAAACCUUUUUUCAAAGCAGUGGG [hsa-mir-4300]
A: T

Q: Now consider GCCGCGGAAGAAGGGGAAGCGC [hsa-mir-6720] and answer again.
A: T

Q: Here is the next sequence: CUCUGCUGUGUAAAUAGUUCUGAGUAGU [hsa-mir-454]
A: T

Q: Moving on to CAAGUCCGUCUUCCUGAGAGGUUUG [hsa-mir-133b]
A: F

Q: GCAGCAGGCACCUGCUUCC [hsa-mir-6868] ?
A: T

Q: Record: GAUGUAAUUAUCUUGGCAAACCACGCGAACAAAUAGAUGGUUAUGUC [DMSMaPseq_invitro_SARS-CoV-2_Motif_374]
A: F
